Provenance of the data: PubChem BioAssay (NCI)

- System: LOX IMVI melanoma
- method.notes: NCI tumour cell line growth inhibition, 48 h

compound | TGI
C=CC(=O)N1CC2(CCN(c3nc(OC4CCN(CCCOC)CC4)nc4c(OCC(F)(F)F)c(-c5c(C)ccc6[nH]ncc56)c(C5CC5)cc34)CC2)C1 | 3.15 µM
COc1ccc2cc(NC(=O)N/N=C\c3ccc(Cl)cc3)ccc2c1 | > 100 µM
NC1CNC(=O)c2c(Cl)sc(Cl)c21 (stereo unspecified) | > 100 µM
Cc1ccc(NC(=O)c2cccc(N(C)C)c2)cc1NC(=O)c1ccc(O)cc1 | > 100 µM
N#CSc1c[nH]c2cccc(/C=C/C(=O)/C=C(/C=C/c3cccc4[nH]cc(SC#N)c34)OB(F)F)c12 | 0.677 µM
Brc1cccc(C=NC23CC4CC(CC(C4)C2)C3)c1 | > 100 µM
O=C(Nc1ccccc1C(=O)NCCCO)/C(=C/c1ccccc1O)NC(=O)c1ccccc1 | > 100 µM
N#Cc1ccc(NC(=O)Nc2ccc(Oc3ccc(NC(=O)Nc4ccc(C#N)cc4)cc3)cc2)cc1 | > 100 µM
COc1c(Br)cc(CC(N)=O)c(O)c1Br | > 100 µM
CC[C@]1(O)C[C@@H]2CN(CCc3c([nH]c4ccccc34)[C@@](C(=O)OC)(c3cc4c(cc3OC)N(C)[C@H]3[C@@](O)(C(=O)OC)[C@H](OC(C)=O)[C@]5(CC)C=CCN6CC[C@]43[C@@H]65)C2)C1 | 14.8 µM
O=C(N/N=C/c1cc(Br)cc(Br)c1[O-])c1ccccc1O.O=C(N/N=C/c1cc(Br)cc(Br)c1[O-])c1ccccc1O.[Fe+2] | 22.7 µM
NC(N)=NS(=O)(=O)c1ccc(NC(=O)c2ccc3nc4ccccc4c(Nc4ccc(S(=O)(=O)N=C(N)N)cc4)c3c2)cc1 | > 100 µM
CC(=O)OCC(OC(C)=O)C1C[C@H]2O[C@@H]3[C@H](C[C@H]2O1)O[C@@]1(C[C@@H]3C)C[C@H](C)[C@@H]2O[C@]3(C[C@@H]2O1)C[C@H]1O[C@H]2[C@H](C)[C@H]4OC(=O)CC5CC[C@H]6OC7[C@H]8O[C@]9(CC[C@H]%10CC(O)(CO)[C@H](CC[C@H]%11C[C@@H](C)C(O)(CO)C(C[C@@H]4O[C@H]2C[C@H]1O3)O%11)O%10)CC8O[C@@H]7[C@@H](O9)[C@H]6O5 (stereo partly specified) | > 0.414 µM
Brc1cc2nn(-c3ccccc3)nc2c2nonc12 | > 100 µM
Nc1cc(N)c2nc(-c3ccccc3)c(Nc3ccc(Cl)c(Cl)c3)nc2c1 | > 100 µM
O=C(N/N=C/c1ccco1)c1cc(I)cc(I)c1O | > 50 µM

====

- Test system: SK-MEL-28 melanoma
- method.notes: NCI tumour cell line growth inhibition, 48 h
This section presents compounds with their documented GI50 values.
measured.quantity: GI50

compound | assay.value
O=C(N/N=C/c1ccccc1O)c1ccccc1Nc1ccnc(C(F)(F)F)c1 | 1.71 µM
O=c1[nH]ncc(Br)c1Br | 1.74 µM
CC[C@]1(O)C[C@@H]2CN(CCc3c([nH]c4ccccc34)[C@@](C(=O)OC)(c3cc4c(cc3OC)N(C)[C@H]3[C@@](O)(C(=O)OC)[C@H](OC(C)=O)[C@]5(CC)C=CCN6CC[C@]43[C@@H]65)C2)C1 | 11.1 µM
NC(=O)c1ccc(I)c(N)c1 | > 100 µM
CC(C)c1nc(CN(C)C(=O)N[C@H](C(=O)N[C@@H](Cc2ccccc2)C[C@H](O)[C@H](Cc2ccccc2)NC(=O)OCc2cncs2)C(C)C)cs1 | 21.5 µM
C=C1C(=O)O[C@H]2[C@H]1CC/C(COC(=O)c1ccc3ccccc3c1)=C\CC[C@@]1(C)O[C@@H]21 | 1.47 µM
O=C1CCCCN1CCCCC#Cc1ccccc1C#Cc1ccc([N+](=O)[O-])cc1 | 10.5 µM
O=c1/c(=C/c2ccco2)sc2nc3ccccc3n12 | > 100 µM
COc1cc(C2NC(=O)c3ccccc3N2)ccc1OCCCCCOc1c(OC)cc(C2=NOC(c3cc(OC)c(OC)c(OC)c3)C2)cc1OC (stereo not given) | 4.13 µM
CCC[CH2][Sn]1([CH2]CCC)[O]Cc2nc(C)ccc2[O]1 | 10.6 µM
Cc1ccc(NC(=O)c2cccc(N(C)C)c2)cc1NC(=O)c1ccc(O)cc1 | > 50.1 µM
N#Cc1ccc(NC(=O)Nc2ccc(Oc3ccc(NC(=O)Nc4ccc(C#N)cc4)cc3)cc2)cc1 | 79.2 µM
CS(=O)(=O)c1ccc([C@H]2O[C@@H](CO)C[C@]2(O)c2ccc(S(C)(=O)=O)cc2)cc1 | > 100 µM
COc1cc([N+](=O)[O-])cc2c3c(n(C)c12)[C@@]1(C)CCC2c4ccc(OCc5ccccc5)cc4CCC2C1C3 (stereo not given in full) | > 100 µM
[Cl-].[Dy+3].[O-]/N=C(\c1ccccc1)c1ccccn1.[O-]/N=C(\c1ccccc1)c1ccccn1.[O-]/N=C(\c1ccccc1)c1ccccn1 | 27.6 µM
CCC[CH2][Sn]([CH2]CCC)([O]C(=O)c1cccnc1SC)[O]C(=O)c1cccnc1SC | 0.722 µM
CC[CH2][Sn]([CH2]CC)([O]C(=O)c1cccnc1SC)[O][Sn]([CH2]CC)([CH2]CC)[O]C(=O)c1cccnc1SC | 0.296 µM
CCc1ccc(/C=C\c2cc(OC)c(OC)c(OC)c2)cc1 | 0.0395 µM
Nc1cc(N)c2nc(-c3ccccc3)c(Nc3ccc(Cl)c(Cl)c3)nc2c1 | 16.1 µM
COc1ccc(/C(COc2c(-c3ccccc3)oc3ccccc3c2=O)=N\O)cc1 | 15 µM
